experiment: qHTS assay to identify small molecule antagonists of the estrogen related receptor (ERR) signaling pathway from Tox21 library - cell viability counter screen (AID 1224834); details: ERR reporter cells viability, CellTiter-Fluor, 17.5 h; series mostly up to 92.4 µM; also: nearly all actives have a fitted effect of over 30% in size
Results filed as inconclusive are left out. Activity calls are given as the source filed them. Calls follow the shape of the dose curve; as a rule, active = well fitted cell-killing curve with a large enough effect in the repeat runs; inconclusive = weak or mixed curves; inactive = flat fitted curve, though single readings scatter.
Write down one outcome, taken from 1.0 for active, 0.0 for inactive

Dear all, I need the recorded test outcome for "O=C(CCl)C(Cl)Cl" , thank you.
1.0

Name the outcome recorded for "Cc1cccc(OP(=O)(Oc2cccc(C)c2)Oc2cccc(C)c2)c1" in the assay.
0.0

Test call, this compound: "Oc1cccc(-c2ccccc2)c1"
0.0

For COC12CC[C@@]3(C[C@@H]1C(C)(O)C(C)(C)C)[C@H]1Cc4ccc(O)c5c4[C@@]3(CCN1CC1CC1)[C@H]2O5 (stereo not given in full) , which call appears in the assay record?
1.0

Entry "CC(C)(C)c1cc([N+](=O)[O-])cc(C(C)(C)C)c1O" : call = ?
1.0

Record request — test call for Clc1ccc(CSC(Cn2ccnc2)c2ccc(Cl)cc2Cl)cc1 (stereo not given)
1.0

Short answer needed: outcome of this test for "N#CCc1ccc(Cl)cc1" ?
0.0

Assay outcome for "CCc1nn(C)c(C(=O)NCc2ccc(C(C)(C)C)cc2)c1Cl" : what was it?
1.0

// param item: "O=[N+]([O-])O.O=[N+]([O-])O.[Cd]" ; yields the recorded call
1.0

Hi, sorry to bother you, what did the test record for "CCCCCCCCCCCCCCCCCCn1cc[n+](C)c1" ?
1.0

// outcome(item) with item = "O=[N+]([O-])c1cc(C(F)(F)F)c(Cl)c([N+](=O)[O-])c1Cl"
1.0

Which outcome was assigned to "CCOC(=O)c1ccccc1S(=O)(=O)NC(=O)Nc1nc(Cl)cc(OC)n1" in this test?
0.0

Just curious, what result did "OC(c1ccc(Cl)cc1)(c1ccc(Cl)cc1)C(Cl)(Cl)Cl" get here?
0.0

Dear colleague, could you share the recorded outcome for "NNC(=O)c1ccccc1" when you have a moment?
0.0

Hi, do you know how "Cl/C=C\CCl" came out in this test?
0.0

Call for entry C[C@H]1CC[C@@H]2[C@@H](C)[C@H]3[C@H](C[C@H]4[C@@H]5CC=C6CC(O[C@@H]7O[C@H](CO)[C@H](O)[C@H](O[C@@H]8O[C@H](CO)[C@@H](O)[C@H](O)[C@H]8O)[C@H]7O[C@H]7O[C@@H](C)[C@H](O)[C@@H](O)[C@H]7O)CC[C@]6(C)[C@H]5CC[C@]34C)N2C1 (stereo not given in full) :
1.0

# outcome recorded in this test, key = "Cc1c(Cl)c(=O)oc2cc(OP(=O)(OCCCl)OCCCl)ccc12"
0.0

How did this test come out for Clc1ccc(CCC(Cn2ccnc2)Sc2c(Cl)cccc2Cl)cc1 (stereo not given) ?
1.0

Dear colleague, could you share the recorded outcome for "CS(=O)(=O)c1ccc(C(=O)C2C(=O)CCCC2=O)c([N+](=O)[O-])c1" when you have a moment?
0.0

Dear all, I need the recorded test outcome for "C[C@]12CC[C@H]3[C@@H](CCC4=CC(=O)CC[C@@]43C)[C@@H]1CC[C@@H]2O" , thank you.
0.0

Which outcome did this test record for the compound "Cc1ccc(C(=O)Cl)cc1" ?
0.0

Returns: the outcome recorded for CC(C)CC(C)Nc1ccc(Nc2ccccc2)cc1 (stereo not given) in this assay.
1.0

Field: outcome | Entry: "ClC1=C(Cl)[C@]2(Cl)[C@@H]3[C@@H]4C[C@@H]([C@H]5O[C@@H]45)[C@@H]3[C@@]1(Cl)C2(Cl)Cl"
1.0

Would you mind telling me which call this test gave "c1ccc2c(c1)[nH]c1cnccc12" ?
0.0

Identify the outcome logged in this assay for the compound shown: "CC(=O)[O-].CC(=O)[O-].O.O.[Cd+2]"
1.0

Test call for this compound, please: "O=C(O)c1cc[c]([Hg][Cl])cc1"
1.0

Answer briefly: the call reported for CC1(c2ccc(Oc3ccccc3)cc2)OC(=O)N(Nc2ccccc2)C1=O (stereo not given) in this assay.
1.0

Query: recorded result category for "C[C@@H](Oc1ccc(Cl)cc1Cl)C(=O)O" in this test
0.0

Per the records of this test, what outcome belongs to "[Cl][Sn]([c]1ccccc1)([c]1ccccc1)[c]1ccccc1" ?
1.0

Field: outcome | Entry: "COP(N)(=S)OC"
0.0
